- system: 4-1BB (coated on ELISA plate) (UniProt Q07011 24-186, limits assumed)
- protocol notes: ELISA, binding OD450 / expression OD450
binders and their reported Binding / Expression ratio (25 degrees)

binder	Binding / Expression ratio (25 degrees)
8B10 (ligand, also called 4-1BBL variant 8B10 (phagemid clone, bacterial supernatant)) 4-1BBL variant: ACPWAVSGARASPGSAASPRLREGPELSPDDPAGLLDLRQGMFAQLVAQNVLLIDGPLSWYTDPGLAGVSLTGGLSYKEDTKELVVAKAGVYYVFFQLELRRVVAGMGSGSVSLALHLQPLRSAAGAAALALTVDLPPASSEARNSAFGFQGRLLHLSAGQRLGVHLHTEARARHSWQLTQGATVLGLFRVTPEIPAGLPSPRSE	1.79
1D2 (ligand, also called 4-1BBL variant 1D2 (phagemid clone, bacterial supernatant)) 4-1BBL variant: ACPWAVSGARASPGSAASPRLREGPELSPDDPAGLLDLRQGMFAQLVAQNVLLIDGPLSWYEDPGLAGVSLTGGLSYKEDTKELVVAKAGVYYVFFQLELRRVVAGTGSGSVSLALHLQPLRSAAGAAALALTVDLPPASSEARNSAFGFQGRLLHLSAGQRLGVHLHTEARARHALQLTQGATVLGLFRVTPEIPAGLPSPRSE	0.525
4C2 (ligand, also called 4-1BBL variant 4C2 (phagemid clone, bacterial supernatant)) 4-1BBL variant: ACPWAVSGARASPGSAASPRLREGPELSPDDPAGLLDLRQGMFAQLVAQNVLLIDGPLSWYPDPGLAGVSLTGGLSYKEDTKELVVAKAGVYYVFFQLELRRVVAGRGSGSVSLALHLQPLRSAAGAAALALTVDLPPASSEARNSAFGFQGRLLHLSAGQRLGVHLHTEARARHAWQFTQGATVLGLFRVTPEIPAGLPSPRSE	0.431
5D9 (ligand, also called 4-1BBL variant 5D9 (phagemid clone, bacterial supernatant)) 4-1BBL variant: ACPWAVSGARASPGSAASPRLREGPELSPDDPAGLLDLRQGMFAQLVAQNVLLIDGPLSFYSDPGLAGVSLTGGLSYKEDTKELVVAKAGVYYVFFQLELRRVVAGTGSGSVSLALHLQPLRSAAGAAALALTVDLPPASSEARNSAFGFQGRLLHLSAGQRLGVHLHTEARARHAWQMTQGATVLGLFRVTPEIPAGLPSPRSE	1.53
4E10 (ligand, also called 4-1BBL variant 4E10 (phagemid clone, bacterial supernatant)) 4-1BBL variant: ACPWAVSGARASPGSAASPRLREGPELSPDDPAGLLDLRQGMFAQLVAQNVLLIDGPLSWYPDPGLAGVSLTGGLSYKEDTKELVVAKAGVYYVFFQLELRRVVAREGSGSVSLALHLQPLRSAAGAAALALTVDLPPASSEARNSAFGFQGRLLHLSAGQRLGVHLHTEARARHAMQLTQGATVLGLFRVTPEIPAGLPSPRSE	0.679
8E2 (ligand, also called 4-1BBL variant 8E2 (phagemid clone, bacterial supernatant)) 4-1BBL variant: ACPWAVSGARASPGSAASPRLREGPELSPDDPAGLLDLRQGMFAQLVAQNVLLIDGPLSWYPDPGLAGVSLTGGLSYKEDTKELVVAKAGVYYVFFQLELRRVVAFEGSGSVSLALHLQPLRSAAGAAALALTVDLPPASSEARNSAFGFQGRLLHLSAGQRLGVHLHTEARARHSWQLTQGATVLGLFRVTPEIPAGLPSPRSE	0.188
